The measured values listed here are drawn from patent US5773414A.

systemName: ETA (Oryctolagus cuniculus)
Construct: The cells used were rabbit renal artery vascular smooth muscle cells; endogenous in cells
Sequence (A5A8K3 21-427): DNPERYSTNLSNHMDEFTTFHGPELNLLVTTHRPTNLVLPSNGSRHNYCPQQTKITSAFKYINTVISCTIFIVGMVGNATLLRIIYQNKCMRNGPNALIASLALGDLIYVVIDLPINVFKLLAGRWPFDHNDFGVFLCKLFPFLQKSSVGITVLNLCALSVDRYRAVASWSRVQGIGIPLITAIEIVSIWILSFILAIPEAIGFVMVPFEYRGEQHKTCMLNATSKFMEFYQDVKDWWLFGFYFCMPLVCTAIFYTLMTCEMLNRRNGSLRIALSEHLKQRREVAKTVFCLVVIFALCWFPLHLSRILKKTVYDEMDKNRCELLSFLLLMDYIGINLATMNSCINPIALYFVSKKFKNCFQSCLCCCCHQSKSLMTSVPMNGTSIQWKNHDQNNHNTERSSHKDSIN
experimentalDetails: Endothelin Receptor Binding Assay-A (ETA), intact cell binding of [125I]-ET-1
conditionContext: Table IIa; rabbit renal artery vascular smooth muscle cells; read-out: Binding Assay IC50 at Receptor Subtypes ETA
Protocol: The cells used were rabbit renal artery vascular smooth muscle cells grown in a 48-well dish (1 cm^2) (confluent cells). […] Second, remove the assay buffers, place the dish on ice, and add 150 μL of cold assay buffer described above to each well. […] Last, add 250 mL of 0.25M sodium hydroxide, agitate for 1 hour on rotator, and then transfer the sodium hydroxide extract to gamma counting tubes and count the radioactivity.
Structures can show the parent of a compound that is named as a salt. Numbered stars: 1 amine (or outer) side, 2 acyl side, 3 side chain; on linkers, the order of the positions; unused ones are H or OH. Square brackets hold non-standard residues; d marks the D form. Peptide text beside a SMILES is read from it. * marks the point of attachment. dDip = N[C@@H](C(=O)O)C(c1ccccc1)c1ccccc1; NHcHex = C1CCC(N*)CC1; CO = O=C([*:1])[*:2]; Tfa = O=C(C(F)(F)F)*
measuredProperty: IC50 (nM)
Give the number; nM is assumed, so skip it.

[ask] Consider the compound shown here: CC[C@H](C)[C@H](NC(=O)[C@H](CC(=O)O)NC(=O)[C@H](CC(C)C)NC(=O)[C@@H](Cc1ccc(O)cc1)NC(C)=O)C(=O)N[C@H](C(=O)N[C@@H](Cc1c[nH]c2ccccc12)C(=O)O)[C@@H](C)CC [Example 10, Ac--D--Tyr--Leu--Asp--Ile--Ile--Trp] (Ac-[dY]LDIIW-OH) What is its recorded IC50?
[reply] 400

[ask] Thanks! And CC[C@H](C)[C@H](NC(=O)[C@H](CC(=O)O)NC(=O)[C@H](CC(C)C)NC(=O)[C@H](NC(=O)C(F)(F)F)C(c1ccccc1)c1ccccc1)C(=O)N[C@H](C(=O)N[C@@H](Cc1c[nH]c2ccccc12)C(=O)O)[C@@H](C)CC [Example 39, CF3 CO--D--Dip--Leu--Asp--Ile--Ile--Trp] (Tfa-[dDip]LDIIW-OH) ?
[reply] 250

[ask] Thanks! And CC[C@H](C)[C@H](NC(=O)[C@H](CC(=O)O)NC(=O)[C@H](CC(C)C)NC(=O)[C@H](NC(=O)NC1CCCCC1)C(c1ccccc1)c1ccccc1)C(=O)N[C@H](C(=O)N[C@@H](Cc1c[nH]c2ccccc12)C(=O)O)[C@@H](C)CC [Example 36, Cxl(U)--D--Dip--Leu--Asp--Ile--Ile--Trp] ({NHcHex-CO}-[dDip]LDIIW-OH) ?
[reply] 820

---

Hi there, I'd appreciate the recorded IC50 for every entry that follows.
systemName: ETB (Rattus norvegicus, UniProt P21451)
Sequence (P21451 27-442): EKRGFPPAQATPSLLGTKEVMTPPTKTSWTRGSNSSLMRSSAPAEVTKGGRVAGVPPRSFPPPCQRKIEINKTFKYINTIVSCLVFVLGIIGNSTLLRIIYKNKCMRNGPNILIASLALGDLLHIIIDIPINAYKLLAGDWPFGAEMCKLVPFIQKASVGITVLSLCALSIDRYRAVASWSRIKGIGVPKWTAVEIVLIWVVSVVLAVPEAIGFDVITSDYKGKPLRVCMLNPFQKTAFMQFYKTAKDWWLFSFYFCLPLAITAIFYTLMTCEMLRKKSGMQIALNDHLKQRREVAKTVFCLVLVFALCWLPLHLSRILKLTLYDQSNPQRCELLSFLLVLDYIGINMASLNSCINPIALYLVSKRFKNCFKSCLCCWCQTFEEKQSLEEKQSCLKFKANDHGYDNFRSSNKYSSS
Numbered stars: 1 amine (or outer) side, 2 acyl side, 3 side chain; on linkers, the order of the positions; unused ones are H or OH. Square brackets hold non-standard residues; d marks the D form. Peptide text beside a SMILES is read from it. * marks the point of attachment. dDip = N[C@@H](C(=O)O)C(c1ccccc1)c1ccccc1; X1 = CC(C(=O)*)(c1ccccc1)c1ccccc1; Orn = NCCC[C@H](N)C(=O)O; NHcHex = C1CCC(N*)CC1; CO = O=C([*:1])[*:2]
Give the number; µM is assumed, so skip it.

[ask] Consider the compound shown here: CC[C@H](C)[C@H](NC(=O)[C@H](CC(=O)O)NC(=O)[C@H](Cc1ccccc1)NC(=O)[C@@H](Cc1ccccc1)NC(C)=O)C(=O)N[C@H](C(=O)N[C@@H](Cc1c[nH]c2ccccc12)C(=O)O)[C@@H](C)CC [Example 60, Ac--D--Phe--Phe--Asp--Ile--Ile--Trp] (Ac-[dF]FDIIW-OH) What is its recorded IC50?
[reply] 0.3

[ask] Thanks! And CC[C@H](C)[C@H](NC(=O)[C@H](CC(=O)O)NC(=O)[C@H](CCCN)NC(=O)[C@@H](Cc1ccccc1)NC(C)=O)C(=O)N[C@H](C(=O)N[C@@H](Cc1c[nH]c2ccccc12)C(=O)O)[C@@H](C)CC [Example 8, Ac--D--Phe--Orn--Asp--Ile--Ile--Trp] (Ac-[dF][Orn]DIIW-OH) ?
[reply] 4

[ask] Thanks! And CC[C@H](C)[C@H](NC(=O)[C@@H]1CCCN1C(=O)[C@H](CC(N)=O)NC(=O)[C@H](CC(C)C)NC(=O)[C@@H](Cc1ccccc1)NC(C)=O)C(=O)N[C@@H](Cc1c[nH]c2ccccc12)C(=O)O [Example 90, Ac--D--Phe--Leu--Asn--Pro--Ile--Trp] (Ac-[dF]LNPIW-OH) ?
[reply] 2.8

[ask] Thanks! And CC[C@H](C)[C@H](NC(=O)[C@H](Cc1ccccc1)NC(=O)[C@H](CC(C)C)NC(=O)[C@@H](Cc1ccccc1)NC(C)=O)C(=O)N[C@H](C(=O)N[C@@H](Cc1c[nH]c2ccccc12)C(=O)O)[C@@H](C)CC [Example 67, Ac--D--Phe--Leu--Phe--Ile--Ile--Trp] (Ac-[dF]LFIIW-OH) ?
[reply] 0.035

[ask] Thanks! And CC[C@H](C)[C@H](NC(=O)[C@H](CC(=O)O)NC(=O)[C@H](NC(C)=O)C(c1ccccc1)c1ccccc1)C(=O)N[C@H](C(=O)N[C@@H](Cc1c[nH]c2ccccc12)C(=O)O)[C@@H](C)CC [Example 94, Ac--D--Dip--Asp--Ile--Ile--Trp] (Ac-[dDip]DIIW-OH; C-terminus assumed) ?
[reply] 0.25

[ask] Thanks! And CC[C@H](C)[C@H](NC(=O)[C@H](CC(=O)O)NC(=O)[C@H](CCC(=O)O)NC(=O)[C@@H](Cc1ccccc1)NC(C)=O)C(=O)N[C@H](C(=O)N[C@@H](Cc1c[nH]c2ccccc12)C(=O)O)[C@@H](C)CC [Example 9, Ac--D--Phe--Glu--Asp--Ile--Ile--Trp] (Ac-[dF]EDIIW-OH) ?
[reply] 1.3

[ask] Thanks! And CC[C@H](C)[C@H](NC(=O)[C@H](CC(=O)O)NC(=O)[C@H](CC(C)C)NC(=O)C(C)(c1ccccc1)c1ccccc1)C(=O)N[C@H](C(=O)N[C@@H](Cc1c[nH]c2ccccc12)C(=O)O)[C@@H](C)CC [Example 28, Bppa--Leu--Asp--Ile--Ile--Trp] (X1-LDIIW-OH) ?
[reply] 1.7

[ask] Thanks! And CC[C@H](C)[C@H](NC(=O)[C@H](CC(=O)O)NC(=O)[C@H](CC(C)C)NC(=O)[C@H](NC(=O)NC1CCCCC1)C(c1ccccc1)c1ccccc1)C(=O)N[C@H](C(=O)N[C@@H](Cc1c[nH]c2ccccc12)C(=O)O)[C@@H](C)CC [Example 36, Cxl(U)--D--Dip--Leu--Asp--Ile--Ile--Trp] ({NHcHex-CO}-[dDip]LDIIW-OH) ?
[reply] 0.05

[ask] Thanks! And CC[C@H](C)[C@H](NC(=O)[C@@H](NC(=O)[C@H](CC(=O)O)NC(=O)[C@H](CC(C)C)NC(=O)[C@H](NC(C)=O)C(c1ccccc1)c1ccccc1)C(C)C)C(=O)N[C@@H](Cc1c[nH]c2ccccc12)C(=O)O [Example 81, Ac--D--Dip--Leu--Asp--Val--Ile--Trp] (Ac-[dDip]LDVIW-OH) ?
[reply] 0.08

[ask] Thanks! And CC[C@H](C)[C@H](NC(=O)[C@H](CC(=O)O)NC(=O)[C@H](CC(C)C)NC(=O)[C@@H](Cc1ccccc1)NC(C)=O)C(=O)N[C@H](C(=O)N[C@@H](Cc1ccc(O)cc1)C(=O)O)[C@@H](C)CC [Example 89, Ac--D--Phe--Leu--Asp--Ile--Ile--Tyr] (Ac-[dF]LDIIY-OH) ?
[reply] 0.22

[ask] Thanks! And CC[C@H](C)[C@H](NC(=O)[C@H](CC(=O)O)NC(=O)[C@H](C)NC(=O)[C@@H](Cc1ccccc1)NC(C)=O)C(=O)N[C@H](C(=O)N[C@@H](Cc1c[nH]c2ccccc12)C(=O)O)[C@@H](C)CC [Example 59, Ac--D--Phe--Ala--Asp--Ile--Ile--Trp] (Ac-[dF]ADIIW-OH) ?
[reply] 0.3

[ask] Thanks! And CC[C@H](C)[C@H](NC(=O)[C@H](CC(=O)O)NC(=O)[C@H](CC(C)C)NC(=O)[C@@H](Cc1ccccc1)NC(C)=O)C(=O)N[C@H](C(=O)N[C@@H](Cc1c[nH]c2ccccc12)C(=O)O)[C@@H](C)CC [Example 1, Ac--D--Phe--Leu--Asp--Ile--Ile--Trp] (Ac-[dF]LDIIW-OH) ?
[reply] 3.3
